Target: ZmDRIK1-K217-S514 (Zea mays)
Construct: kinase domain, K217-S514
Assay: biochemical
Details: read-out: dTm B, sheet ZmDRIK1-K217-S514;; DSF, Boltzmann fit, 0.1% DMSO
Quantity kind: ΔTm at 10 µM (°C)
Answers are plain numbers, in °C.

Solved entries:
| Input smiles | Study target | Units | Test value |
| --- | --- | --- | --- |
| Cn1c(=O)c(F)c(Nc2ccc(I)cc2F)c2c(=O)n(C[C@@H](O)CO)cnc21 | ZmDRIK1-K217-S514 (Zea mays) | °C | -0.514 |
| COc1ccc(S(=O)(=O)N(C(C)=O)c2ccccc2/C=C/c2cc[n+]([O-])cc2)cc1 | ZmDRIK1-K217-S514 (Zea mays) | °C | -0.242 |
| C=CC(=O)Nc1cccc(Nc2nc(Nc3ccc(NC4CN(CCF)C4)cc3OC)ncc2C(F)(F)F)c1 | ZmDRIK1-K217-S514 (Zea mays) | °C | -0.646 |

Which ΔTm at 10 µM is listed for O=C(Cc1ccc(-c2ccc(OCCN3CCOCC3)cc2)cn1)NCc1ccccc1 ? -0.346

---

Target: ZmDRIK1-K217-S514 (Zea mays)
Construct: kinase domain, K217-S514
Assay: biochemical
Details: read-out: dTm B, sheet ZmDRIK1-K217-S514;; DSF, Boltzmann fit, 0.1% DMSO
Counter-ions that a name gives are not always drawn.
Provide the reported ΔTm at 10 µM of each item.
Numbers only, in °C.

Report ΔTm at 10 µM for every entry below.
1. CCCCCCCCc1ccc(CCC(N)(CO)CO)cc1 [Fingolimod (FTY720) HCl]
2. O=c1cc(CN2CCOCC2)occ1OCCCCCSc1ccnc2cc(C(F)(F)F)ccc12 [EHT 1864]

[-0.608, -0.387]

---

Target: ZmDRIK1-R187-P492 (Zea mays)
Construct: kinase domain, R187-P492
Sequence (C0P4K9 1-514): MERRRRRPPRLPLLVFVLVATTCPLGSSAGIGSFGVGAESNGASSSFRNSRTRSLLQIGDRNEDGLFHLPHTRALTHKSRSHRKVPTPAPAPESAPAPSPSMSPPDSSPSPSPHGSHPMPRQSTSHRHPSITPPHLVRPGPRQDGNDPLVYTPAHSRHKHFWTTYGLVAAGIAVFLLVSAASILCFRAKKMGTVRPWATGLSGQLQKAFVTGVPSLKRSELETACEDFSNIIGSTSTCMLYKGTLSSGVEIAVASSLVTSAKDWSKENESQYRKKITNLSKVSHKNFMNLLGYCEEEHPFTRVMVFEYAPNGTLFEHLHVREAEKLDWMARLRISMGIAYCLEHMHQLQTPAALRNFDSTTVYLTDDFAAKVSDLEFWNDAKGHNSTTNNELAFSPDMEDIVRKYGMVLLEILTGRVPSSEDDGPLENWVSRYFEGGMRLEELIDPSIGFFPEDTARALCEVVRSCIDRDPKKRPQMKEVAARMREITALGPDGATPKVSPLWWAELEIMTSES
Experiment: biochemical
Conditions: read-out: dTm B, DSF, Boltzmann fit, 0.1% DMSO
Structures can show the parent of a compound that is named as a salt.
Provide the reported ΔTm at 10 µM of each item.
Numbers only, in °C.

Solved entries:
| Compound | Study target | ΔTm at 10 µM (°C) |
| --- | --- | --- |
| Cc1cnc(Nc2ccc(N3CCN(C)CC3)cc2)nc1Nc1cccc(S(=O)(=O)NC(C)(C)C)c1 | ZmDRIK1-R187-P492 (Zea mays) | -0.311 |
| N=C(N)NC(=N)NCCc1ccccc1 [Phenformin HCl] | ZmDRIK1-R187-P492 (Zea mays) | -0.125 |
| CN1CC[C@H](c2c(O)cc(O)c3c(=O)cc(-c4ccccc4Cl)oc23)[C@H](O)C1 [Flavopiridol HCl] | ZmDRIK1-R187-P492 (Zea mays) | -0.272 |

Report ΔTm at 10 µM for every entry below.
1. CNC(=O)CN1CCC(Oc2cc3c(Nc4cccc(Cl)c4F)ncnc3cc2OC)CC1 [AZD8931 (Sapitinib)]
2. O=c1ncn2nc(Sc3ccc(F)cc3F)ccc2c1-c1c(Cl)cccc1Cl
3. C[C@@H]1COCCN1c1cc(C2(S(C)(=O)=O)CC2)nc(-c2cccc3[nH]ccc23)n1

1: -0.238; 2: -0.394; 3: -0.0341

Report ΔTm at 10 µM for every entry below.
1. CN1CCN(c2ccc(OC(F)(F)F)c(Nc3ncc4c(n3)-c3c(c(C(N)=O)nn3CCO)CC4)c2)CC1
2. C=CC(=O)Nc1cccc(Sc2nc(Nc3ccc(N4CCN(C)CC4)cc3)ncc2Cl)c1

-0.749
-0.275
